Test: qHTS screen for small molecules that inhibit ELG1-dependent DNA repair: Hit Confirmation with 5FU Viability (AID 624250);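 note: ELG1-luc HEK293T cells cotreated with 5-fluorouridine at 10 µM final; viability measured 16 h after compound addition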
Details: cell viability with 5-FU; series mostly up to 46.1 µM
This is one part of the list. Inconclusive results are not listed. The source made the active and inactive calls. Calls come from the whole dose curve; as a rule, active = well fitted cell-killing curve with a large enough effect; inconclusive = small, poorly fitted or top-dose-only effect, or effect the other way, or another doubt; inactive = no such curve, though single readings can be large or run the other way.
Hello, when you answer, please use one of the following outcomes: y for active, n for inactive

# Line Notation, Classification
data = [
    ("OCCCNc1nccc(-c2cc(Nc3cccc(Cl)c3)ncn2)n1", "n"),
    ("COc1ccccc1C(=O)Nc1ccc(C)c(S(=O)(=O)N2CCCCC2)c1", "n"),
    ("COc1cc(N)c(Cl)cc1C(=O)OCC(=O)c1ccc2c(c1)NC(=O)CO2", "n"),
    ("COc1ccc(CNc2ncnc3ccccc23)cc1", "n"),
    ("COc1ccc(S(=O)(=O)Nc2ccc3oc(C)c(C(C)=O)c3c2)cc1", "n"),
]

IN: Which result was noted for this molecule in the test: Cc1nnc(N/N=C/c2ccccn2)[nH]c1=O
OUT: n

IN: Next record, please: CC(=O)[O][Sn]([c]1ccccc1)([c]1ccccc1)[c]1ccccc1
OUT: y

IN: Next record, please: CCc1ccc(N(CC)c2ncnc3nc[nH]c23)cc1
OUT: n

* * *

Assay: MultiTox-Fluor Cytotoxicity Assay - LYMP1-001 - Live Cells (AID 947)
Settings: LYMP1-001 lymphoblastoid cells, live-cell protease fluorescence viability; series mostly up to 92.2 µM
Inconclusive results are not listed. Activity calls are given as the source filed them. Calls follow the shape of the dose curve; as a rule, active = well fitted cell-killing curve with a large enough effect; inconclusive = small, poorly fitted or top-dose-only effect; inactive = flat fitted curve, though single readings scatter.
Hello, when you answer, please use one of the following outcomes: active, inactive

The examples below pair each entry with its known result.
# Molecule, Classification
rows = [
    ("C[C@@H]1CC[C@@]2(OC1)O[C@H]1[C@@H](O)[C@H]3[C@@H]4CC[C@H]5C[C@@H](O[C@@H]6O[C@H](CO)[C@H](O[C@@H]7O[C@H](CO)[C@@H](O)[C@H](O[C@@H]8OC[C@@H](O)[C@H](O)[C@H]8O)[C@H]7O[C@@H]7O[C@H](CO)[C@@H](O)[C@H](O[C@@H]8O[C@H](CO)[C@@H](O)[C@H](O)[C@H]8O)[C@H]7O)[C@H](O)[C@H]6O)[C@H](O)C[C@]5(C)[C@H]4CC[C@]3(C)[C@H]1[C@@H]2C", "active"),
    ("O=[N+]([O-])C(Br)Br", "inactive"),
    ("Nc1ccccc1C(=O)OCCc1ccccc1", "inactive"),
]

IN: Which result was noted for this molecule in the test: N#CSCSC#N
OUT: active

* * *

Test: qHTS assay for cell viability of HEK293 cells (AID 743288); note: % is set by controls: 0 for no effect and ±100 for the full control effect; nearly all actives have a fitted effect of over 50% in size
Conditions: ATP luminescence (CellTiter-Glo), 18 h; stronger effect = lower value
Results filed as inconclusive are left out.
Quantity Kind: max response (%)
Numeric only. Scale: %

IN: Recorded max response for O=C(NC(=O)c1c(F)cccc1F)Nc1cc(Cl)c(OC(F)(F)C(F)C(F)(F)F)c(Cl)c1F (stereo not drawn) , please?
OUT: -24.3

* * *

Test system: DFO2036
Experiment: qHTS profiling for inhibitors of Plasmodium falciparum proliferation (AID 504749); note: nearly all actives have a fitted effect of over 60% in size
Conditions: P. falciparum in erythrocytes, SYBR Green DNA, 72 h; series mostly up to 28.7 µM
Procedure: NIH National Institute of Allergy and Infectious Diseases [NIAID] NIH Chemical Genomics Center [NCGC] […] Because mature erythrocytes lack DNA, only Plasmodium-derived DNA is detected. NCGC Assay Protocol Summary: The SYBR Green viability assay was adapted from a method described previously (Plouffe et al., 2008). […] The following morning, fluorescence intensity at 485(14) nm excitation and 535(25) nm emission wavelengths was measured on an EnVision (Perkin Elmer) plate reader. […]
Results filed as inconclusive are left out. Calls of active or inactive are those of the source. The call rests on the fitted dose curve; in most records, active means well fitted inhibition curve with a large enough effect; inconclusive means small, poorly fitted or top-dose-only effect; inactive means flat fitted curve, though single readings scatter.
Hello, when you answer, please use one of the following outcomes: 1.0 (active), 0.0 (inactive)

The examples below pair each entry with its known result.
# Compound, Classification
rows = [
    ("Cc1ccc2c(c1)[C@@H]1CN(C)CC[C@H]1N2", 0.0),
    ("CCC/C=C/C=C/C(=O)OC1/C(=C/C(=O)OC)CC2CC(C(C)O)OC(=O)CC(O)CC3CC(OC(C)=O)C(C)(C)C(O)(CC4C/C(=C/C(=O)OC)CC(/C=C\\C(C)(C)C1(O)O2)O4)O3 (configuration not stated)", 1.0),
    ("COC(C(=O)C(O)C(C)O)C1Cc2cc3cc(OC4CC(OC5CC(O)C(OC)C(C)O5)C(OC(C)=O)C(C)O4)c(C)c(O)c3c(O)c2C(=O)C1OC1CC(OC2CC(OC3CC(C)(O)C(OC(C)=O)C(C)O3)C(O)C(C)O2)C(O)C(C)O1 (configuration not stated)", 1.0),
    ("CC1CC[C@@]2(NC1)OC1CC3C4CC[C@@H]5CC(O)CC[C@@]5(C)C4CC[C@]3(C)C1C2C (some centres not stated)", 0.0),
    ("C=CC[N+]1(C)CCC23c4c5ccc(O)c4O[C@H]2C(=O)CC[C@@]3(O)C1C5 (some centres not stated)", 0.0),
    ("C=CC[C@]1(O)CCC2C3CCC4=CCCCC4C3CCC21C (some centres not stated)", 0.0),
]

Moving on to another compound below.
IN: Which result was noted for this compound in the test: C[C@]12CCC3C(CCC4=C(Cl)C(=O)CC[C@@]43C)C1CCC2O (some centres not stated)
OUT: 0.0
